- target or system: T1, IL-1β (UniProt P01584 117-269)
- T1 construct: Antigen of XPA23
- experimental details: Biacore, Fab periplasmic extract
quantity measured: fold difference in affinity against the original
Provide the measurement as a number trailed by its unit.

Reported fold difference in affinity against the original of XPA23 heavy chain T58L (Fab, V domains shown, Fab, periplasmic extract; also called C5A T58L) VH: EVQLLESGGGLVQPGGSLRLSCAASGFTFSKYFMFWVRQAPGKGLEWVSVISPSGGMLRYADSVKGRFTISRDNSKNTLYLQMNSLRAEDTAVYYCARVGYGGNSDYWGQGTLVTVSS VL: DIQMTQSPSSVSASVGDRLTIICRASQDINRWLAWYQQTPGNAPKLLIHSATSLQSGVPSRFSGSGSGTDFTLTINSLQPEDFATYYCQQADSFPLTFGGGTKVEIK : 0.95 fold

Reported fold difference in affinity against the original of XPA23 heavy chain Y107P (Fab, V domains shown, Fab, periplasmic extract; also called C5A Y107P) VH: EVQLLESGGGLVQPGGSLRLSCAASGFTFSKYFMFWVRQAPGKGLEWVSVISPSGGMTRYADSVKGRFTISRDNSKNTLYLQMNSLRAEDTAVYYCARVGYGGNSDPWGQGTLVTVSS VL: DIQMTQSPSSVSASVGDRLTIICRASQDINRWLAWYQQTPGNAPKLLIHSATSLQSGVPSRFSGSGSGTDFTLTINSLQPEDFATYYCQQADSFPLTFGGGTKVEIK : 0.04 fold

Reported fold difference in affinity against the original of XPA23 heavy chain S52P (Fab, V domains shown, Fab, periplasmic extract; also called C5A S52P) VH: EVQLLESGGGLVQPGGSLRLSCAASGFTFSKYFMFWVRQAPGKGLEWVSVIPPSGGMTRYADSVKGRFTISRDNSKNTLYLQMNSLRAEDTAVYYCARVGYGGNSDYWGQGTLVTVSS VL: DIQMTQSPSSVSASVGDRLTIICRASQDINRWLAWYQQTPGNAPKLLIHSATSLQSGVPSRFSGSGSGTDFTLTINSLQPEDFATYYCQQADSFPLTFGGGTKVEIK : 0.05 fold

Reported fold difference in affinity against the original of XPA23 heavy chain S105I (Fab, V domains shown, Fab, periplasmic extract; also called C5A S105I) VH: EVQLLESGGGLVQPGGSLRLSCAASGFTFSKYFMFWVRQAPGKGLEWVSVISPSGGMTRYADSVKGRFTISRDNSKNTLYLQMNSLRAEDTAVYYCARVGYGGNIDYWGQGTLVTVSS VL: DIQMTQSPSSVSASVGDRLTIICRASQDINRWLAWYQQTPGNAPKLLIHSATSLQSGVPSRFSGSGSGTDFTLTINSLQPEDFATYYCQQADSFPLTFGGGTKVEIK : 0.07 fold

Reported fold difference in affinity against the original of XPA23 heavy chain Y101T (Fab, V domains shown, Fab, periplasmic extract; also called C5A Y101T) VH: EVQLLESGGGLVQPGGSLRLSCAASGFTFSKYFMFWVRQAPGKGLEWVSVISPSGGMTRYADSVKGRFTISRDNSKNTLYLQMNSLRAEDTAVYYCARVGTGGNSDYWGQGTLVTVSS VL: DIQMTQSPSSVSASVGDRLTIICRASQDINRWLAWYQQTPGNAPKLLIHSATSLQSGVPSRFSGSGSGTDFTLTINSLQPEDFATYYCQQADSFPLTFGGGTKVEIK : 0.06 fold
